I'd be grateful if you could share measured manual score for these entries.
- tgt: G protein-activated inward rectifier potassium channel 2 (Homo sapiens) + G protein-activated inward rectifier potassium channel 1 (Homo sapiens) (UniProt P48051+P48549)
- Sequence (P48051 whole entry, looked up): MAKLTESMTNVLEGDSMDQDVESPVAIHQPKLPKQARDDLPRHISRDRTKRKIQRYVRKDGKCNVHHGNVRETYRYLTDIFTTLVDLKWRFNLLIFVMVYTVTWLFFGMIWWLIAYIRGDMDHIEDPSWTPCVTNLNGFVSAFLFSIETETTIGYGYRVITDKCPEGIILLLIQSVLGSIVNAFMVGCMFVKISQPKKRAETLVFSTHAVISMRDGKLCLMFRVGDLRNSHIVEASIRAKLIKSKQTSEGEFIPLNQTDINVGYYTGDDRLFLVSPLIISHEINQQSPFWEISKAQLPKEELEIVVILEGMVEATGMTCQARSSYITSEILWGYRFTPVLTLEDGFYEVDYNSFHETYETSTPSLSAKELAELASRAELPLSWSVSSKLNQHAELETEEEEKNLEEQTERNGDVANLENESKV
- Sequence (P48549 whole entry, looked up): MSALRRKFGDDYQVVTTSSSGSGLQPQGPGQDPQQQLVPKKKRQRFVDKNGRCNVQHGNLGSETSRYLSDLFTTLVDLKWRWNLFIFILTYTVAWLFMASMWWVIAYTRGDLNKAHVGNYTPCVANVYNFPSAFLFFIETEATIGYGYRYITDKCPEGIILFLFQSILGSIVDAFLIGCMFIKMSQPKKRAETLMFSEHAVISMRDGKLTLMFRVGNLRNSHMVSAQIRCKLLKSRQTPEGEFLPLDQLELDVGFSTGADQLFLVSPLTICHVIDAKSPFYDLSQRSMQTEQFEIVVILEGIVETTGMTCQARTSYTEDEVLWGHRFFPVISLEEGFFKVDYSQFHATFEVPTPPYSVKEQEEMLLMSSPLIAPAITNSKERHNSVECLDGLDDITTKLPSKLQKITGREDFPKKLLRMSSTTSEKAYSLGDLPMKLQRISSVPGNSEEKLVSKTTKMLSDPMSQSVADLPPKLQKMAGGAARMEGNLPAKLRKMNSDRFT
- experiment: GIRK1/2 thallium flux modulators, retest, confirmation, cell-based, HEK293 rmGlu8/hGIRK1/2, FluoZin-2 (AID 623911)
- condition_summary: HEK293 rmGlu8/hGIRK1/2, thallium flux FluoZin-2; actives lie on both sides; glutamate co-added at its EC20 level
Screen size: about 2,100 compounds; about 770 (37%) were called active. The list shows a part of the results.
Number only, no unit.

Exercise: Need manual score, item Cc1sc2ncnc(SCc3ccco3)c2c1C
Solution: 0

Exercise: Need manual score, item C/C(N)=C(/C#N)C(=O)CSc1nc2cc(Cl)ccc2c(=O)n1-c1ccc(C)cc1
Solution: 0

Exercise: Need manual score, item Cc1onc(-c2ccccc2)c1C(=O)NNC(=S)NC(=O)c1ccc(Br)cc1
Solution: 1

Exercise: Need manual score, item CCCCN(CCCC)C(=S)N/N=C/c1c(C)[nH]n(-c2ccccc2)c1=O
Solution: 1

Exercise: Need manual score, item O=c1c2cc(N3CCOCC3)ccc2[nH]c(=S)n1Cc1ccc(Cl)cc1
Solution: 0

Exercise: Need manual score, item CN1CC=C2C(C#N)=C(N)C(C#N)(C#N)[C@H](c3cccc(Cl)c3)C2C1 (stereo not given in full)
Solution: 3

Exercise: Need manual score, item CNC(=S)N/N=C/c1ccc(C(C)C)cc1
Solution: 0

Exercise: Need manual score, item Cc1[nH]n(-c2ccc(F)cc2)c(=O)c1/C=N/c1sc2c(c1C#N)CCCC2
Solution: 3

Exercise: Need manual score, item O=C1CC(C(=O)Nc2ccc(Br)cc2)C2(CCCC2)O1 (stereo not given)
Solution: 1

Exercise: Need manual score, item CC(=O)Nc1nnc(C)s1
Solution: 0

Exercise: Need manual score, item CC1(C)CC(c2nc(-c3ccc(Br)cc3)cs2)CCS1 (stereo not given)
Solution: 0

Exercise: Need manual score, item O=C(Oc1c(Cl)cc(Cl)c2cccnc12)c1cccc([N+](=O)[O-])c1
Solution: 1

Exercise: Need manual score, item O=C(Nc1ccc(Br)cc1)C1CCC(=O)N1Cc1ccccc1Cl (stereo not given)
Solution: 0

Exercise: Need manual score, item O=C(NNC(=O)c1cccnc1SCc1cccc([N+](=O)[O-])c1)c1ccccn1
Solution: 0

Exercise: Need manual score, item S=C(N/N=C/c1ccccc1)N1CCOCC1
Solution: 0.5

Exercise: Need manual score, item CCn1c(SCC(=O)NC(=O)NCc2ccco2)nc2sc(C)c(C)c2c1=O
Solution: 1

Exercise: Need manual score, item O=C(Oc1c(Cl)cc(Cl)c2cccnc12)c1ccco1
Solution: 1

Exercise: Need manual score, item Fc1cccc(-n2c(-c3ccco3)nc3nc4ccccc4nc32)c1
Solution: 0

Exercise: Need manual score, item CCCc1noc2c1/C(=N\O)CC(CC(C)SCC)C2 (stereo not given)
Solution: -1

Exercise: Need manual score, item Cc1ccccc1C(=O)NC(=S)Nc1sc2c(c1C#N)CCCC2
Solution: 0

Exercise: Need manual score, item O=C1c2ccccc2NC(c2ccc(-c3cccc(Cl)c3)o2)N1O (stereo not given)
Solution: 0.5

Exercise: Need manual score, item CCC(=O)n1nc(-c2cccnc2)nc1NCc1ccc(OC)cc1
Solution: 0

Exercise: Need manual score, item O=c1[nH]c2ccc(Cl)cc2c(=O)n1Cc1ccco1
Solution: 0

Exercise: Need manual score, item O=c1c2ccccc2nc(-c2ccccc2)n1/N=C/c1ccc([N+](=O)[O-])cc1
Solution: 0

Exercise: Need manual score, item CCN=c1scc(-c2ccco2)n1/N=C/c1ccc(O)cc1
Solution: 0

Exercise: Need manual score, item O=c1c2ccc(Cl)cc2nc(-c2cccc(C(F)(F)F)c2)n1O
Solution: 1

Exercise: Need manual score, item CCN(CC)S(=O)(=O)c1cc(NC(=O)Cn2cnc3ccccc3c2=O)ccc1C
Solution: 1

Exercise: Need manual score, item O=c1c2cc(Br)ccc2nc(-c2cccc(C(F)(F)F)c2)n1O
Solution: 1

Exercise: Need manual score, item Cc1[nH]n(-c2cccc3ccccc23)c(=O)c1/C=N/c1sc2c(c1C#N)CCC2
Solution: 1

Exercise: Need manual score, item Cc1ccc(C(=O)c2ccc(N3CCOCC3)c(F)c2)cc1
Solution: 0

Exercise: Need manual score, item CCOC(=O)C1(C(C)(C)CC)CC(CSc2nc3ccccc3[nH]2)OC1=O (stereo not given)
Solution: -1

Exercise: Need manual score, item CCCn1c(SCc2nc3sc(C)c(C)c3c(=O)[nH]2)nc2ccccc2c1=O
Solution: 0

Exercise: Need manual score, item Cc1ccn2c(NC3CCCCC3)c(C(C)C)nc2c1
Solution: -1

Exercise: Need manual score, item C=CCNC(=S)NNC(=O)COc1ccc(Cl)cc1Cl
Solution: 0

Exercise: Need manual score, item Cc1ccc(C)c(Nc2c([N+](=O)[O-])cc(C(=O)N3CC(=O)Nc4ccccc43)cc2[N+](=O)[O-])c1
Solution: 0

Exercise: Need manual score, item Cc1ccc(/C=N/NC(=S)N2CCOCC2)cc1
Solution: 1

Exercise: Need manual score, item Cc1sc2nc(C(C)C)nc(SCC(=O)N3c4ccccc4CC3C)c2c1C (stereo not given)
Solution: 1

Exercise: Need manual score, item Cc1onc(-c2ccccc2)c1C(=O)NC(=S)Nc1sc2c(c1C#N)CCCC2
Solution: 1

Exercise: Need manual score, item CCNC(=S)N/N=C/c1c(Cl)cccc1Cl
Solution: 0.5

Exercise: Need manual score, item Cc1ccccc1NC1=C(Cl)C(=O)OC1OC(=O)c1ccco1 (stereo not given)
Solution: 0

Exercise: Need manual score, item S=C(N/N=C/c1ccc(Cl)cc1)N1CCOCC1
Solution: 1

Exercise: Need manual score, item Cc1ccccc1C(=O)NNC(=S)NC(=O)c1ccc(Cl)cc1Cl
Solution: 1

Exercise: Need manual score, item Clc1ccc(/C=N/Nc2nc(Cl)nc3ccccc23)cc1
Solution: 0

Exercise: Need manual score, item C=CCOc1ccc(/C(O)=C2/C(=O)C(=O)N(CCCN3CCOCC3)C2c2ccccc2)cc1 (stereo not given)
Solution: 0

Exercise: Need manual score, item CC1=NN(c2ccccc2)C(=O)/C1=C\c1c(C)[nH]n(-c2ccccc2)c1=O
Solution: 0

* * *

- tgt: G protein-activated inward rectifier potassium channel 2 (Homo sapiens) + G protein-activated inward rectifier potassium channel 1 (Homo sapiens) (UniProt P48051+P48549)
- experiment: GIRK1/2 thallium flux modulators, retest, confirmation, cell-based, HEK293 rmGlu8/hGIRK1/2, FluoZin-2 (AID 623911)
- condition_summary: HEK293 rmGlu8/hGIRK1/2, thallium flux FluoZin-2; actives lie on both sides; glutamate co-added at its EC20 level
The campaign covered roughly 2,100 compounds. About 770 (37%) were called active. This is one part of the list.
I'd be grateful if you could share measured manual score for these entries.
Number only, no unit.

Exercise: Need manual score, item CCN(CC)CCN1C(=O)c2oc3ccccc3c(=O)c2C1c1ccc(C)cc1 (stereo unspecified)
Solution: 0

Exercise: Need manual score, item CCOC(=O)CSC1=C(C#N)C(=O)NC(c2ccc(OC)c(OC)c2)S1 (stereo unspecified)
Solution: 0

Exercise: Need manual score, item COC(=O)COc1ccc(S(=O)(=O)Nc2ccccc2C(=O)OC)cc1
Solution: 0

Exercise: Need manual score, item O=C(Nc1nnc(-c2ccc3c(c2)CCCC3)o1)c1ccccc1Cl
Solution: 1

Exercise: Need manual score, item COc1ccc(-c2c3c([nH]c(=S)c2C#N)CCC3)cc1
Solution: 0

Exercise: Need manual score, item CCOC(=O)c1c(C)[nH]c(=S)c(C#N)c1-c1ccc(Cl)cc1
Solution: 0

* * *

- tgt: G protein-activated inward rectifier potassium channel 2 (Homo sapiens) + G protein-activated inward rectifier potassium channel 1 (Homo sapiens) (UniProt P48051+P48549)
- experiment: GIRK1/2 thallium flux modulators, retest, confirmation, cell-based, HEK293 rmGlu8/hGIRK1/2, FluoZin-2 (AID 623911)
- condition_summary: HEK293 rmGlu8/hGIRK1/2, thallium flux FluoZin-2; actives lie on both sides; glutamate co-added at its EC20 level
Hit rate of the full screen: of about 2,100 compounds, about 770 (37%) were called active.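 The calls were made as follows: active = by-eye trace score of 1 for enhancers or -1 for inhibitors, so actives lie on both sides (some results past the limit were not filed as active); inactive = score 0, or 3 fluorescent, or 4 baseline rise.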 This is one part of the list.
# valid calls are active, inactive; nothing else

Exercise: Entry Cc1c(C(=O)NC(=S)Nc2ccccc2N2CCCC2)cccc1[N+](=O)[O-] : call = ?
Solution: inactive

Exercise: Entry CN1C2C=C3C(C#N)=C(N)C(C#N)(C#N)[C@@H](c4ccsc4)[C@@H]3C1CC2 (stereo partly drawn) : call = ?
Solution: inactive

Exercise: Entry CC/C(=N\NC(=S)Nc1cc(C)ccc1C)c1ccc(OC(F)F)cc1 : call = ?
Solution: inactive

Exercise: Entry Cc1sc2ncnc(N(C)Cc3cccs3)c2c1C : call = ?
Solution: active

Exercise: Entry O=C(NC(=S)N1CCCc2ccccc21)c1ccc(Cl)cc1 : call = ?
Solution: active

Exercise: Entry O=S(=O)(Nc1cc(Sc2cccc3cccnc23)c(O)c2ccccc12)c1ccc(F)cc1 : call = ?
Solution: inactive

Exercise: Entry COC(=O)c1ccccc1NC(=O)Nc1cnccn1 : call = ?
Solution: inactive

Exercise: Entry Cc1cc(C)c2[nH]c(=S)cc(C)c2c1 : call = ?
Solution: active

Exercise: Entry CCCN(CCC)CCNC(=O)C(NS(=O)(=O)c1ccc2c(c1)CCC(=O)N2)c1ccccc1 (stereo not drawn) : call = ?
Solution: inactive

Exercise: Entry CCCCCCn1cnc2c(c1=O)c1nc3ccccc3nc1n2/N=C/c1ccco1 : call = ?
Solution: inactive

Exercise: Entry CCc1cc(C(=O)NNC(=S)Nc2cc(C)ccc2C)cs1 : call = ?
Solution: active

Exercise: Entry CC(C)C(=O)Nc1cccc(NC(=O)c2cc3ccccc3o2)c1 : call = ?
Solution: inactive

Exercise: Entry COc1ccc(S(=O)(=O)NCCC(=O)NC2CCCCCCC2)cc1 : call = ?
Solution: inactive

Exercise: Entry N#Cc1nc(COc2ccccc2)oc1N1CCN(c2cccc(Cl)c2)CC1 : call = ?
Solution: inactive

Exercise: Entry O=C(NC(=S)Nc1ccccc1N1CCCC1)c1ccc([N+](=O)[O-])cc1 : call = ?
Solution: active

Exercise: Entry COc1ccc(C(=S)Nc2ccc(N(C)C)cc2)cc1 : call = ?
Solution: inactive

Exercise: Entry Cc1cc(=S)[nH]c2c(C)cccc12 : call = ?
Solution: active

Exercise: Entry COCC(C)OC(=O)c1c(N)n(CC(C)C)c2nc3ccccc3nc12 (stereo not drawn) : call = ?
Solution: inactive

Exercise: Entry Cc1ccc(C2CC2C(=O)NNC(=S)Nc2cccc(C)c2)cc1 (stereo not drawn) : call = ?
Solution: inactive

Exercise: Entry C(/C=C/C=C/Nc1ccccc1)=Nc1ccccc1 : call = ?
Solution: inactive

Exercise: Entry S=c1[nH]nc(CSCc2ccc(Cl)cc2Cl)n1-c1ccccc1 : call = ?
Solution: inactive

Exercise: Entry O=C(NC(=S)Nc1ccccc1N1CCCC1)c1ccccc1[N+](=O)[O-] : call = ?
Solution: inactive

Exercise: Entry COC(=O)[C@H](Cc1ccccc1)NC(=O)NCCC1=CCCCC1 : call = ?
Solution: active
